Cited source: patent US9833497B2

In this section we review reported MIC against P. vulgaris values for a set of substances.
test system: Proteus vulgaris; experiment: MIC against Gram-negative bacteria: Proteus vulgaris; format: cell-based; details: Proteus vulgaris; 96-well plate, 5×10^5 CFU/mL, 37° C., 10 h
test.readout: MIC against P. vulgaris (µg/mL)

INSERT INTO results (substance, reported) VALUES
  ('PRT1248 (SACYCSATSRCDPQTGACLCHAGWWGRSCN; listed as Homo sapiens)', 12.5),
  ('PRT1327 (EINPCLENHGGCDKNAECTQTGPNQAACNCLPAYTGDGKVCT; listed as Homo sapiens)', 12.5),
  ('PRT1336 (DCNQCPGGFSNPCSGNGQCADSLGGNGTCICEEGFQGSQCQ; listed as Homo sapiens)', 12.5),
  ('PRT1320 (PSNPCSHPDRGGCSENAECVPGSLGTHHCTCHKGWSGDGRVCV; listed as Homo sapiens)', 50),
  ('PRT1287 (EPCRKLYCLHGICQPNATPGPMCHCEAGWVGLHCD; listed as Homo sapiens)', 50),
  ('PRT1260 (DINECLVNNGGCDHFCRNTVGSFECGCRKGYKLLTDERTCQ; listed as Homo sapiens)', 50),
  ('PRT1214 (GRENCTFAPCLEGGTCILSPKGASCNCPHPYTGDRCE; listed as Homo sapiens)', 12.5),
  ('PRT1324 (PITSCLEQTGKCHPLASCQSTSSGVWSCVCQEGYEGDGFL; listed as Homo sapiens)', 12.5),
  ('PRT1272 (DVDECVEGTDNCHIDAICQNTPRSYKCICKSGYTGDGKHCK; listed as Homo sapiens)', 12.5),
  ('PRT1301 (DNDDCVAHKCRHGAQCVDTINGYTCTCPQGFSGPFCE; listed as Homo sapiens)', 25),
  ('PRT1306 (CSLLCLPKANNSRSCRCPEDVSSSVLPSGDLMCDCPQGYQLKNNTCV; listed as Homo sapiens)', 25),
  ('PRT1254 (DVDECSEGTDDCHIDAICQNTPKSYKCLCKPGYKGEGKQCE; listed as Homo sapiens)', 25),
  ('PRT1243 (FGESCEQQCPHCRHGEACEPDTGHCQRCDPGWLGPRCE; listed as Homo sapiens)', 25),
  ('PRT1258 (GRTCIETCAVNNGGCDRTCKDTATGVRCSCPVGFTLQPD; listed as Homo sapiens)', 25),
  ('PRT1300 (VIDHCVPELNLCQHEAKCIPLDKGFSCECVPGYSGKLCE; listed as Homo sapiens)', 12.5),
  ('PRT1311 (LLDPCSKNNGGCSPYATCKSTGDGQRTCTCDTAHTVGDGLTCR; listed as Homo sapiens)', 25),
  ('PRT1228 (CPPCPKYASCHNSTHCTCEDGFRARSGRTYFHDSSEKCE; listed as Homo sapiens)', 25),
  ('PRT1216 (YPDACKRSPCQHGGSCTGLPSGGYQCTCLSQFTGRNCE; listed as Homo sapiens)', 25),
  ('PRT1250 (FGARCDRYCQCFRGRCHPVDGTCACEPGYRGKYCR; listed as Homo sapiens)', 50),
  ('PRT1246 (CKELCSCHPHGQCEDVTGQCTCHARRWGARCE; listed as Homo sapiens)', 25),
  ('PRT1235 (IGPQCEEMCNGQGSCINGTKCICDPGYSGPTCK; listed as Homo sapiens)', 50),
  ('PRT1208 (VHHGCEDDPCPEGSECVSDPWEEKHTCVCPSGRFGQCP; listed as Homo sapiens)', 25),
  ('PRT1319 (SMGDCGPTGLAQHCHLHARCVSQEGVARCRCLDGFEGDGFS; listed as Homo sapiens)', 12.5),
  ('PRT1295 (RTSPCDNFDCQNGAQCIVRINEPICQCLPGYQGEKCE; listed as Homo sapiens)', 50);
